Known Population Hoechst High Intensity Objects (%) of a selection of compounds
# Test system: U2OS
# Test method notes: Multiplex assay against U2OS
# Assay type: toxicity, cell-based
# Cond: human, 12 h, 10 µM, compound concentration 10 uM, replicate 1
Report as a plain number; the unit % is understood.

>>> result_number("CCc1cc2cc(NS(=O)(=O)c3ccc(C#N)cc3)ccc2n(CC)c1=O")
2
>>> result_number("N#Cc1c(Oc2cccc(OS(=O)(=O)CCCC(F)(F)F)c2)cccc1C(F)(F)F")
3

Memo: Cc1cnc(-c2cc(N3CCN(C(=O)CCS(C)(=O)=O)CC3)ncc2Cl)c(C)c1 , reported Population Hoechst High Intensity Objects (%): 1

Noted for Cc1sc2c(c1C)C(c1ccc(Cl)cc1)=N[C@@H](CC(=O)NCCCCCCCCNC(=O)COc1cccc3c1C(=O)N(C1CCC(=O)NC1=O)C3=O)c1nnc(C)n1-2 (stereo partly drawn) : its Population Hoechst High Intensity Objects (%) reads 5

Looking up CC[C@@H](C)Nc1nc(C)nc2c(-c3ccc(OC)nc3C)c(C)nn12 , I found its Population Hoechst High Intensity Objects (%) recorded as 1

Documented Population Hoechst High Intensity Objects (%) of Cc1cccc(NC(=O)CN2CCC(c3ccccn3)CC2)c1.Cl.Cl : 2

The value of Population Hoechst High Intensity Objects (%) measured for the compound CC(C)COc1ccc(CNC(=O)N(Cc2ccc(F)cc2)C2CCN(C)CC2)cc1 turned out to be 5

Consider Cl.N=C(N)NC(=O)Cc1c(Cl)cccc1Cl [GUANFACINE HYDROCHLORIDE] . Its measured Population Hoechst High Intensity Objects (%) is 1

GET /value?item= CC(C)(C)c1cc(NC(=O)Nc2ccc(-c3cn4c(n3)sc3cc(OCCN5CCOCC5)ccc34)cc2)no1 &field=Population Hoechst High Intensity Objects (%) returns 13

Consider O=C(NCCN1CCC(n2c(=O)[nH]c3cc(Cl)ccc32)CC1)c1ccc(F)cc1 [HALOPEMIDE] . Its measured Population Hoechst High Intensity Objects (%) is 4

What the record says about CCCOc1ccc2[nH]cc(C3=CCNCC3)c2n1.Cl : Population Hoechst High Intensity Objects (%) is 4

* * *

# System: HEK-293T
# Test method notes: Multiplex assay against HEK293T
# Assay type: toxicity, cell-based
# Cond: human, 24 h, 10 µM, compound concentration 10 uM, replicate 1
compounds and their reported Total Cell Count
Number only, no unit.

Examples with their reported Total Cell Count follow.
>>> result_number("CCCCC1=NC2(CCCC2)C(=O)N1Cc1ccc(-c2ccccc2-c2nnn[nH]2)cc1")
287
>>> result_number("CN(C)C(=O)Cn1cc(-c2ccc(-c3cncc4ccccc34)cc2)cn1")
283
>>> result_number("CCc1cc2cc(NS(=O)(=O)c3ccc(C#N)cc3)ccc2n(CC)c1=O")
478
>>> result_number("Cc1onc(-c2ccccc2Cl)c1C(=O)N(C)c1ccc(Cl)cc1")
478
>>> result_number("COc1ccccc1N1CCN(C[C@@H](C(=O)NC(C)(C)C)c2ccccc2)CC1.Cl.Cl")
377

Record CC(=O)Nc1cccc2c1c(Sc1ccc(Cl)cc1)c(C)n2CC(=O)O . Reported Total Cell Count: 526

Entry N#Cc1cc(F)cc(-c2nc(-c3ccc(F)cn3)no2)c1 — recorded Total Cell Count = 479

COc1cccc2c1c(NS(=O)(=O)c1ccc(Cl)s1)nn2Cc1cccc(CNC(=O)C(C)(C)O)c1 yielded Total Cell Count of 462

// field: Total Cell Count; key: Cc1noc(-c2ccc(-c3ccc(CC(=O)O)cc3)cc2)c1NC(=O)O[C@H](C)c1ccccc1Cl ; value = 352

CC(C)COc1ccc(CNC(=O)N(Cc2ccc(F)cc2)C2CCN(C)CC2)cc1 yielded Total Cell Count of 285
